# System: Escherichia coli TOP10
# ASSAY TEXT: shrunken log2 fold change of peptide-encoding DNA abundance (4.5 h post-induction vs induction); higher = less antimicrobial activity (less host growth inhibition)
# CONDITION DETAILS: time post-induction: 4.5 h; library: site-saturation at positions 5, 18, 19, 20
Label T when shrunken log2 fold change is at or above 0.07; otherwise label F.

SEQUENCE CONTENT	CATEGORY LABEL
RRIRGRPPRLPRPRPRPQLMPRP	T
RRIRKRPPRLPRPRPRPAIQPRP	T
RRIRKRPPRLPRPRPRPPDLPRP	T
RRIRRRPPRLPRPRPRPYMDPRP	F
RRIRFRPPRLPRPRPRPGYQPRP	F
RRIRRRPPRLPRPRPRPTKTPRP	F
RRIRARPPRLPRPRPRPFMWPRP	F
RRIRPRPPRLPRPRPRPKEQPRP	T
RRIRQRPPRLPRPRPRPSHKPRP	F
RRIRNRPPRLPRPRPRPAWHPRP	T
RRIRRRPPRLPRPRPRPSEIPRP	F
RRIRMRPPRLPRPRPRPVWIPRP	F
RRIRFRPPRLPRPRPRPKNMPRP	F
RRIRVRPPRLPRPRPRPMCMPRP	F
RRIRRRPPRLPRPRPRPYSRPRP	F
RRIRERPPRLPRPRPRPVAFPRP	F
RRIRRRPPRLPRPRPRPLQSPRP	T
RRIRWRPPRLPRPRPRPSVKPRP	F
RRIRVRPPRLPRPRPRPFWMPRP	F
RRIRRRPPRLPRPRPRPACWPRP	T
RRIRYRPPRLPRPRPRPFDNPRP	F
RRIRHRPPRLPRPRPRPYSLPRP	F
RRIRARPPRLPRPRPRPHQIPRP	T
RRIRHRPPRLPRPRPRPQYKPRP	F
RRIRVRPPRLPRPRPRPPEGPRP	T

---

# Test system: Escherichia coli TOP10
# ASSAY TEXT: shrunken log2 fold change of peptide-encoding DNA abundance (4.5 h post-induction vs induction); higher = less antimicrobial activity (less host growth inhibition)
# CONDITION DETAILS: time post-induction: 4.5 h; library: site-saturation at positions 5, 18, 19, 20
Mark Condition not met for shrunken log2 fold change values under -0.006, and Condition met for everything at or above.

SEQUENCE CONTENT	SYSTEM TESTED	CATEGORY LABEL
RRIRGRPPRLPRPRPRPDWFPRP	Escherichia coli TOP10	Condition met
RRIRARPPRLPRPRPRPMHHPRP	Escherichia coli TOP10	Condition met
RRIRGRPPRLPRPRPRPREPPRP	Escherichia coli TOP10	Condition met
RRIRLRPPRLPRPRPRPDVPPRP	Escherichia coli TOP10	Condition not met
RRIRDRPPRLPRPRPRPHKMPRP	Escherichia coli TOP10	Condition not met

---

Here, each record is paired with measured shrunken log2 fold change data.
# Test system: Escherichia coli TOP10
# ASSAY TEXT: shrunken log2 fold change of peptide-encoding DNA abundance (4.5 h post-induction vs induction); higher = less antimicrobial activity (less host growth inhibition)
# CONDITION DETAILS: time post-induction: 4.5 h; library: site-saturation at positions 5, 18, 19, 20

SEQUENCE CONTENT	shrunken log2 fold change
RRIRDRPPRLPRPRPRPYNYPRP	-0.27
RRIRYRPPRLPRPRPRPHVQPRP	-0.0701
RRIRIRPPRLPRPRPRPISKPRP	-0.161
RRIRLRPPRLPRPRPRPQCDPRP	-0.118
RRIRPRPPRLPRPRPRPNACPRP	0.195
RRIRGRPPRLPRPRPRPTPQPRP	1.05
RRIRGRPPRLPRPRPRPIHNPRP	-0.268
RRIRWRPPRLPRPRPRPPYHPRP	-0.106
RRIRVRPPRLPRPRPRPLKQPRP	-0.0521
RRIRDRPPRLPRPRPRPPQAPRP	0.268
RRIRARPPRLPRPRPRPCMAPRP	0.104
RRIRPRPPRLPRPRPRPARVPRP	0.295

---

# Tested on: Escherichia coli TOP10
# ASSAY TEXT: shrunken log2 fold change of peptide-encoding DNA abundance (4.5 h post-induction vs induction); higher = less antimicrobial activity (less host growth inhibition)
# CONDITION DETAILS: time post-induction: 4.5 h; library: site-saturation at positions 5, 18, 19, 20
A collection of sequences and their measured shrunken log2 fold change
MEASUREMENT NAME: shrunken log2 fold change

SEQUENCE CONTENT	SYSTEM TESTED	NUMBER
RRIRSRPPRLPRPRPRPKYMPRP	Escherichia coli TOP10	-0.677
RRIRRRPPRLPRPRPRPTHHPRP	Escherichia coli TOP10	0.8
RRIRHRPPRLPRPRPRPIFTPRP	Escherichia coli TOP10	-0.191
RRIRERPPRLPRPRPRPWCWPRP	Escherichia coli TOP10	0.315
RRIRKRPPRLPRPRPRPLRQPRP	Escherichia coli TOP10	0.00205
RRIRLRPPRLPRPRPRPMSRPRP	Escherichia coli TOP10	-0.00152
RRIRMRPPRLPRPRPRPFCQPRP	Escherichia coli TOP10	0.0975
RRIRLRPPRLPRPRPRPQALPRP	Escherichia coli TOP10	-0.042
RRIRKRPPRLPRPRPRPPMYPRP	Escherichia coli TOP10	-0.0675
RRIRHRPPRLPRPRPRPSDEPRP	Escherichia coli TOP10	-0.000726

---

# Test system: Escherichia coli TOP10;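 note: peptides expressed intracellularly from a pBAD plasmid library in pooled LB shake-flask culture, induced with 0.3% L-arabinose, DNA abundance read by NGS, three biological replicates, DESeq2 with apeglm shrinkage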
# ASSAY TEXT: shrunken log2 fold change of peptide-encoding DNA abundance (4.5 h post-induction vs induction); higher = less antimicrobial activity (less host growth inhibition)
# CONDITION DETAILS: time post-induction: 4.5 h; library: site-saturation at positions 5, 18, 19, 20

SEQUENCE CONTENT	shrunken log2 fold change
RRIRRRPPRLPRPRPRPMKFPRP	0.212
RRIRNRPPRLPRPRPRPSQWPRP	-0.194
RRIRLRPPRLPRPRPRPGYFPRP	-0.347
RRIRGRPPRLPRPRPRPRNTPRP	0.0904
RRIRQRPPRLPRPRPRPICCPRP	0.259
RRIRHRPPRLPRPRPRPYHEPRP	-0.0135
RRIRVRPPRLPRPRPRPAPIPRP	0.152
RRIRRRPPRLPRPRPRPWEMPRP	-0.171
RRIRDRPPRLPRPRPRPVPFPRP	2.99
RRIRRRPPRLPRPRPRPNAAPRP	0.794
RRIRWRPPRLPRPRPRPYPDPRP	-0.106
RRIRARPPRLPRPRPRPGVNPRP	-0.238
RRIRERPPRLPRPRPRPSDTPRP	-0.287
RRIRYRPPRLPRPRPRPVMQPRP	-0.315
RRIRYRPPRLPRPRPRPICAPRP	-0.211
RRIRQRPPRLPRPRPRPCHRPRP	0.0197
RRIRLRPPRLPRPRPRPAIDPRP	-0.283
RRIRLRPPRLPRPRPRPYSEPRP	-1.71
RRIRVRPPRLPRPRPRPLTYPRP	-0.356
RRIRYRPPRLPRPRPRPASQPRP	-0.08
RRIRQRPPRLPRPRPRPGHNPRP	0.0106
RRIRGRPPRLPRPRPRPPVQPRP	0.496
RRIRQRPPRLPRPRPRPIGEPRP	-0.0171
RRIRERPPRLPRPRPRPPDVPRP	-0.108
RRIRPRPPRLPRPRPRPTGCPRP	0.0367
RRIRPRPPRLPRPRPRPLYGPRP	0.0853
RRIRMRPPRLPRPRPRPSTPPRP	0.0303
RRIRMRPPRLPRPRPRPLGSPRP	0.169
RRIRFRPPRLPRPRPRPVPDPRP	-0.136
RRIRWRPPRLPRPRPRPKVLPRP	0.155
RRIRDRPPRLPRPRPRPVAYPRP	-0.0825
RRIRARPPRLPRPRPRPGWDPRP	0.811
RRIRQRPPRLPRPRPRPPDRPRP	0.0477
RRIRSRPPRLPRPRPRPFVFPRP	-0.102
RRIRERPPRLPRPRPRPQCSPRP	-0.442
RRIRMRPPRLPRPRPRPVIKPRP	-0.0254
RRIRARPPRLPRPRPRPQGSPRP	0.4
RRIRLRPPRLPRPRPRPGNTPRP	-0.242
RRIRSRPPRLPRPRPRPKHPPRP	-0.194
RRIRIRPPRLPRPRPRPMYAPRP	-0.191
RRIRERPPRLPRPRPRPMMPPRP	0.0391
RRIRERPPRLPRPRPRPWMRPRP	0.079
RRIRMRPPRLPRPRPRPWYTPRP	-0.012
RRIRNRPPRLPRPRPRPNEIPRP	0.145
RRIRVRPPRLPRPRPRPCHCPRP	-0.373
RRIRGRPPRLPRPRPRPMLKPRP	0.575
RRIRVRPPRLPRPRPRPPNWPRP	0.293
RRIRYRPPRLPRPRPRPRHKPRP	-0.208
